Biological target: human PDHK1 (hPDHK1) (Homo sapiens (Human), UniProt Q15118)
Sequence (Q15118 29-436): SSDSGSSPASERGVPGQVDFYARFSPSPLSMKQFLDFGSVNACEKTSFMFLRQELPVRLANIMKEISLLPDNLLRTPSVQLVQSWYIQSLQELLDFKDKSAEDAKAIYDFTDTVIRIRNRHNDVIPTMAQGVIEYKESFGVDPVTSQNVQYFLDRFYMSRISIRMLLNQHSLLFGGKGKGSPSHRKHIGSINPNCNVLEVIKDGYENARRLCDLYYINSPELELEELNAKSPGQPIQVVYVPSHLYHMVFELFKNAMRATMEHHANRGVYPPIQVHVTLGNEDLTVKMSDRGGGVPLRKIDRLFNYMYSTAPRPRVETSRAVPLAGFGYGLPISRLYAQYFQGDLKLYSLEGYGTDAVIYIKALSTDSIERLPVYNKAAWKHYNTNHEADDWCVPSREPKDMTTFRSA
Assay: Inhibitory action of PDHK1 activity in vitro (residual PDH activity after PDHK reaction)
Details: PDH/hPDHK1 complex solution, PDHK reaction at room temperature for 45 min, NADH absorbance at 340 nm; read-out: hPDK1 IC50
pIC50: −log10 of the molar value.
Reported property: pIC50

C[C@H]1CN(C(=O)c2ccc(-c3ccc(C#N)cc3)cn2)Cc2cnc([C@@](C)(O)C(F)(F)F)n21 | 8.05
C[C@H]1CN(C(=O)c2cc3n(n2)CCO3)Cc2onc([C@@](C)(O)C(F)(F)F)c21 | 8.10
C[C@H]1CN(C(=O)c2ccc(F)c(-c3cncc(F)c3)c2)Cc2cnc([C@@](C)(O)C(F)(F)F)n21 | 8.30
C[C@H]1CN(C(=O)c2ncncc2-c2ccc(F)cc2)Cc2cnc([C@@](C)(O)C(F)(F)F)n21 | 7.20
C[C@H]1CN(C(=O)c2c3cc(F)ccc3nn2C)Cc2cnc([C@@](C)(O)C(F)(F)F)n21 | 8.22
C[C@H]1CN(C(=O)c2cc(C3CC3)nn2C2CC2)Cc2cnc([C@@](C)(O)C(F)(F)F)n21 | 8.15

(A) C[C@H]1CN(C(=O)c2cc(C3CC3)nn2C)Cc2onc([C@@](C)(O)C(F)(F)F)c21
(B) C[C@H]1CN(C(=O)C2CCC(n3cc(Cl)cn3)CC2)Cc2cnc([C@@](C)(O)C(F)(F)F)n21 (some centres unmarked)
(C) C[C@H]1CN(C(=O)c2cc(-c3ccc(C#N)cc3)nn2C)Cc2cnc([C@@](C)(O)C(F)(F)F)n21
(D) C[C@H]1CN(C(=O)c2ncccc2-c2ccc(F)cc2)Cc2cnc([C@@](C)(O)C(F)(F)F)n21
(E) C[C@H]1CN(C(=O)c2cc(C3CC3)n(CC(F)(F)F)n2)Cc2cnc([C@@](C)(O)C(F)(F)F)n21
Task item: Reorder the items by pIC50, least to greatest. Provide your answer as the labels ordered per the instruction.
Reply: D, B, C, A, E
(D: 7.34, B: 7.70, C: 8.05, A: 8.30, E: 8.52)

(P) C[C@H]1CN(C(=O)C2Cc3ccccc3C2)Cc2cnc([C@@](C)(O)C(F)(F)F)n21
(Q) C[C@H]1CN(C(=O)c2cc(C3CCOCC3)nn2C)Cc2cnc([C@@](C)(O)C(F)(F)F)n21
Task item: Of P and Q , whose reported pIC50 is numerically smaller? Return value: the label identifying the chosen record.
Reply: P
(P: 7.80, Q: 8.10)

----------
Biological target: human PDHK2 (hPDHK2) (Homo sapiens (Human))
Assay: Inhibitory action of PDHK2 activity in vitro (residual PDH activity after PDHK reaction)
Type: biochemical
Conditions: lowest concentration of the test compound in the assay (<3 nmol/L); shown when IC50 value could not be calculated
Protocol: The inhibitory action of PDHK activity was assessed indirectly by measuring the residual PDH activity after PDHK reaction in the presence of a test compound. (Inhibitory Action of PDHK2 Activity) […] Then, 10 μL of substrates (5 mmol/L sodium pyruvate, 5 mmol/L Coenzyme A, 12 mmol/L NAD, 5 mmol/L thiamine pyrophosphate, diluted with assay buffer) were added. The mixture was incubated at room temperature for 90 min, and the residual PDH activity was measured. […]
Reported property: hPDHK2 inhibitory rate at the lowest concentration of the test compound (%)

C[C@H]1CN(C(=O)c2cc(C3CC3)nn2C)Cc2cnc([C@@](C)(O)C(F)(F)F)n21 [Example 14] | 57
C[C@H]1CN(C(=O)c2n[nH]c3c2CCC(C)(C)C3)Cc2onc([C@@](C)(O)C(F)(F)F)c21 [Example 103] | 66
C[C@H]1CN(C(=O)c2ccnc(-c3ccc(F)cc3)c2)Cc2cnc([C@@](C)(O)C(F)(F)F)n21 [Example 48] | 81
C[C@H]1CN(C(=O)c2ccnc(-c3ccc(F)cc3)c2F)Cc2cnc([C@@](C)(O)C(F)(F)F)n21 [Example 87] | 53
C[C@H]1CN(C(=O)c2c(C#N)c(C3CC3)nn2C)Cc2cnc([C@@](C)(O)C(F)(F)F)n21 [Example 19] | 67

----------
Molecular target: human PDHK1 (hPDHK1) (Homo sapiens (Human), UniProt Q15118)
Experiment: Inhibitory action of PDHK1 activity in vitro (residual PDH activity after PDHK reaction)
Conditions: PDH/hPDHK1 complex solution, PDHK reaction at room temperature for 45 min, NADH absorbance at 340 nm; read-out: hPDK1 IC50
pIC50: −log10 of the molar value.
Reported property: pIC50

Worked cases, pIC50 given:
C[C@H]1CN(C(=O)c2cccc(-c3ccccn3)c2)Cc2cnc([C@@](C)(O)C(F)(F)F)n21 [Example 49] | 8.52
C[C@H]1CN(C(=O)c2c(Cl)c(C3CC3)nn2C)Cc2cnc([C@@](C)(O)C(F)(F)F)n21 [Example 22] | 8.22

(A) C[C@H]1CN(C(=O)c2ccc3c(c2)OC(F)(F)O3)Cc2cnc([C@@](C)(O)C(F)(F)F)n21 [Example 11]
(B) C[C@H]1CN(C(=O)c2cccc(-c3ccc(C#N)cn3)c2)Cc2cnc([C@@](C)(O)C(F)(F)F)n21 [Example 79]
Task item: Of A and B , whose reported pIC50 is numerically smaller? Return value: the label identifying the chosen record.
Reply: A

(A) C[C@H]1CN(C(=O)c2cncc(-c3ccc(F)cc3)c2)Cc2cnc([C@@](C)(O)C(F)(F)F)n21 [Example 80]
(B) C[C@H]1CN(C(=O)[C@H]2NCCc3ccccc32)Cc2onc([C@@](C)(O)C(F)(F)F)c21 [Example 105]
Task item: Of A and B , whose reported pIC50 is numerically smaller? Return value: the label identifying the chosen record.
Reply: B
(B: 8.05, A: 8.52)

(P) CC(=O)N1CCc2ccccc2[C@H]1C(=O)N1Cc2onc([C@@](C)(O)C(F)(F)F)c2[C@@H](C)C1 [Example 107]
(Q) C[C@H]1CN(C(=O)c2cc(-c3ccc(F)cc3)n[nH]2)Cc2cnc([C@@](C)(O)C(F)(F)F)n21 [Example 34]
Task item: Which of the two items, P and Q , has the greater recorded pIC50? Return value: the label identifying the chosen record.
Reply: P

(A) C[C@H]1CN(C(=O)c2ccc(C3CC3)cc2)Cc2cnc([C@@](C)(O)C(F)(F)F)n21 [Example 18]
(B) Cc1c(C(=O)N2Cc3cnc([C@@](C)(O)C(F)(F)F)n3[C@@H](C)C2)ccnc1-c1ccc(C#N)cc1 [Example 65]
Task item: Which of the two items, A and B , has the greater recorded pIC50? Return value: the label identifying the chosen record.
Reply: B
(B: 8.40, A: 8.15)

----------
Target: human PDHK2 (hPDHK2) (Homo sapiens (Human))
Experiment: Inhibitory action of PDHK2 activity in vitro (residual PDH activity after PDHK reaction)
Conditions: PDH/hPDHK2 complex solution, PDHK reaction at room temperature for 45 min, NADH absorbance at 340 nm; read-out: kPDK2 IC50
Reported property: IC50 (nM)

(1) C[C@H]1CN(C(=O)c2cc(-c3ccc(F)cc3)ccn2)Cc2cnc([C@@](C)(O)C(F)(F)F)n21
(2) Cc1cc(C#N)ccc1-c1cc(C(=O)N2Cc3cnc([C@@](C)(O)C(F)(F)F)n3[C@@H](C)C2)n(C)n1
Task item: Which of the two items, 1 and 2 , has the greater recorded IC50? Return value: the label identifying the chosen record.
Reply: 2
(2: 11 nM, 1: 4 nM)

----------
Biological target: human PDHK2 (hPDHK2) (Homo sapiens (Human))
Experiment: Inhibitory action of PDHK2 activity in vitro (residual PDH activity after PDHK reaction)
Details: PDH/hPDHK2 complex solution, PDHK reaction at room temperature for 45 min, NADH absorbance at 340 nm; read-out: kPDK2 IC50
pIC50: −log10 of the molar value.
Reported property: pIC50

Worked cases, pIC50 given:
C[C@H]1CN(C(=O)c2cc(-c3ccc(F)cn3)nn2C)Cc2cnc([C@@](C)(O)C(F)(F)F)n21 | 8.15
COc1ccc(-c2cc(C(=O)N3Cc4cnc([C@@](C)(O)C(F)(F)F)n4[C@@H](C)C3)no2)cc1 | 7.85
C[C@H]1CN(C(=O)c2nn(C)c(-c3ccc(C#N)cc3)c2Cl)Cc2cnc([C@@](C)(O)C(F)(F)F)n21 | 8.22
C[C@H]1CN(C(=O)c2cc(C3CC3)on2)Cc2cnc([C@@](C)(O)C(F)(F)F)n21 | 7.92
Cc1cc(C#N)ccc1-c1cc(C(=O)N2Cc3cnc([C@@](C)(O)C(F)(F)F)n3[C@@H](C)C2)ccn1 | 8.15

(A) C[C@H]1CN(C(=O)c2ccc(C3(O)CCC3)cc2)Cc2cnc([C@@](C)(O)C(F)(F)F)n21
(B) C[C@H]1CN(C(=O)c2ccc(C#N)c(-n3cccn3)c2)Cc2cnc([C@@](C)(O)C(F)(F)F)n21
Task item: Of A and B , whose reported pIC50 is numerically smaller? Return value: the label identifying the chosen record.
Reply: B
(B: 7.96, A: 8.22)

(I) C[C@H]1CN(C(=O)c2cc3ccccc3o2)Cc2cnc([C@@](C)(O)C(F)(F)F)n21
(II) C[C@H]1CN(C(=O)C(C)(C)c2ccc(-c3nn[nH]n3)cc2)Cc2onc([C@@](C)(O)C(F)(F)F)c21
(III) C[C@H]1CN(C(=O)c2[nH]nc(C3CC3)c2Cl)Cc2onc([C@@](C)(O)C(F)(F)F)c21
Task item: Reorder the items by pIC50, least to greatest. Provide your answer as the labels ordered per the instruction.
Reply: I, II, III
(I: 7.44, II: 8.05, III: 8.30)

(P) C[C@H]1CN(C(=O)c2cc(C3CC3)nn2C2CC2)Cc2cnc([C@@](C)(O)C(F)(F)F)n21
(Q) C[C@H]1CN(C(=O)c2cc(-c3ccc(F)cc3F)nn2C)Cc2cnc([C@@](C)(O)C(F)(F)F)n21
(R) C[C@H]1CN(C(=O)c2ccc(F)c(C3CC3)n2)Cc2cnc([C@@](C)(O)C(F)(F)F)n21
(S) C[C@H]1CN(C(=O)C2(C)CN(C3CC(F)(F)C3)C2)Cc2cnc([C@@](C)(O)C(F)(F)F)n21
Task item: Reorder the items by pIC50, least to greatest. Provide your answer as the labels ordered per the instruction.
Reply: S, R, P, Q
